# Test system: swine kidney (SK6) cells
# Measurement conditions: swine
Measure: CC50

*Q* Need CC50 of O=C(Nc1ccc(S[C@@H]2O[C@H](CO)[C@@H](O)[C@H](O)[C@H]2O)cc1)[C@H]1O[C@@H](n2ccc(=O)[nH]c2=O)[C@H](O)[C@@H]1O , thanks.
*A* 265 µM

---

# Experiment summary: in vitro
# Measurement conditions: swine
Binned CC50; ranges: low band (below 60 µM), middle band (60 µM to below 300 µM), high band (300 µM or more)

*Q* Band for CC(=O)OC[C@H]1O[C@@H](Sc2ccc(NC(=O)[C@H]3O[C@@H](n4ccc(=O)[nH]c4=O)[C@H](O[Si](C)(C)C(C)(C)C)[C@@H]3O[Si](C)(C)C(C)(C)C)cc2)[C@H](OC(C)=O)[C@@H](OC(C)=O)[C@@H]1OC(C)=O ?
*A* low band

---

# Experiment summary: in vitro
# Measurement conditions: swine
Output 1.0 for records whose CC50 is lower than 300 µM, 0.0 for records at or above 300 µM.

Worked cases, answers included:
| Given smiles | Assigned label |
| --- | --- |
| CC(=O)OC[C@H]1O[C@@H](Sc2ccc(NC(=O)CCC(=O)OC[C@H]3O[C@@H](n4ccc(=O)[nH]c4=O)[C@@H]4OC(C)(C)O[C@@H]43)cc2)[C@H](OC(C)=O)[C@@H](OC(C)=O)[C@@H]1OC(C)=O | 1.0 |
| CC(=O)OC[C@H]1O[C@@H](Sc2ccc(NC(=O)CCC(=O)OC[C@H]3O[C@@H](n4ccc(=O)[nH]c4=O)[C@H](O[Si](C)(C)C(C)(C)C)[C@@H]3O[Si](C)(C)C(C)(C)C)cc2)[C@H](OC(C)=O)[C@@H](OC(C)=O)[C@@H]1OC(C)=O | 1.0 |
| CC(=O)OC[C@H]1O[C@@H](Sc2ccc(NC(=O)CCC(=O)OC[C@H]3O[C@@H](n4ccc(=O)[nH]c4=O)[C@H](O[Si](C)(C)C(C)(C)C)[C@@H]3O[Si](C)(C)C(C)(C)C)cc2)[C@H](OC(C)=O)[C@@H](OC(C)=O)[C@H]1OC(C)=O | 1.0 |

*Q* Does the reported CC50 of CC(=O)OC[C@H]1O[C@@H](Sc2ccc(NC(=O)[C@H]3O[C@@H](n4ccc(=O)[nH]c4=O)[C@H](O[Si](C)(C)C(C)(C)C)[C@@H]3O[Si](C)(C)C(C)(C)C)cc2)[C@H](OC(C)=O)[C@@H](OC(C)=O)[C@H]1OC(C)=O stay below 300 µM?
*A* 1.0

*Q* Quick check: does CC(=O)OC[C@H]1O[C@@H](Sc2ccc(NC(=O)[C@H]3O[C@@H](n4ccc(=O)[nH]c4=O)[C@@H]4OC(C)(C)O[C@@H]43)cc2)[C@H](OC(C)=O)[C@@H](OC(C)=O)[C@H]1OC(C)=O have CC50 under 300 µM?
*A* 0.0

*Q* CC50 strictly < 300 µM for this molecule? O=C(Nc1ccc(S[C@@H]2O[C@H](CO)[C@@H](O)[C@H](O)[C@H]2O)cc1)[C@H]1O[C@@H](n2ccc(=O)[nH]c2=O)[C@H](O)[C@@H]1O
*A* 1.0

*Q* Hi there! Is CC50 for CC(=O)OC[C@H]1O[C@@H](Sc2ccc(NC(=O)[C@H]3O[C@@H](n4ccc(=O)[nH]c4=O)[C@@H]4OC(C)(C)O[C@@H]43)cc2)[C@H](OC(C)=O)[C@@H](OC(C)=O)[C@@H]1OC(C)=O below 300 µM, do you know?
*A* 0.0

*Q* CC50 under 300 µM? Item: O=C(Nc1ccc(S[C@@H]2O[C@H](CO)[C@H](O)[C@H](O)[C@H]2O)cc1)[C@H]1O[C@@H](n2ccc(=O)[nH]c2=O)[C@H](O)[C@@H]1O
*A* 1.0
